# System: Plasmodium berghei
# METHOD_DESCRIPTION: Luciferase/luciferin-expressing antifolate-resistant parasites were used to infect a culture of HepG2 cells that were pre-incubated with compounds. Infected hepatocytes emit light due to the luciferase reaction. Assay results are presented as the percent inhibition of light emission compared to control. […]
# Format: functional
# PROTOCOL_CONDITIONS: sporozoite, HEPG2TOX_HILL_SLOPE 0.679, HEPG2TOX_R_SQUARED 0.968, PBLUC_HILL_SLOPE 1.34, PBLUC_R_SQUARED 0.516, read-out: LUCIFERASE INFECTION ASSAY - IC50
MEASUREMENT_LABEL: pIC50
Remember the convention: pIC50 equals -log10 of concentration in molar.

GET /values?readout=pIC50&item= CSc1sc(C(=O)N/N=C/c2ccccc2Cl)c2c1C(O)CCC2 (stereo unspecified) 5.68

====

# System: Plasmodium berghei
# METHOD_DESCRIPTION: Luciferase/luciferin-expressing antifolate-resistant parasites were used to infect a culture of HepG2 cells that were pre-incubated with compounds. Infected hepatocytes emit light due to the luciferase reaction. Assay results are presented as the percent inhibition of light emission compared to control. […]
# Format: functional
# PROTOCOL_CONDITIONS: sporozoite, FFLUC_HILL_SLOPE 14.6, FFLUC_R_SQUARED 0.758, read-out: LUCIFERASE INFECTION ASSAY - IC50
MEASUREMENT_LABEL: IC50

GET /values?readout=IC50&item= `CSc1nccc(-c2ccsc2)n1` > 15.8 µM

====

# Test system: Plasmodium berghei
# METHOD_DESCRIPTION: Luciferase/luciferin-expressing antifolate-resistant parasites were used to infect a culture of HepG2 cells that were pre-incubated with compounds. Infected hepatocytes emit light due to the luciferase reaction. Assay results are presented as the percent inhibition of light emission compared to control. […]
# Assay type: functional
# PROTOCOL_CONDITIONS: sporozoite, HEPG2TOX_HILL_SLOPE 0.86, HEPG2TOX_R_SQUARED 0.883, PBLUC_HILL_SLOPE 13, PBLUC_R_SQUARED 0.726, read-out: LUCIFERASE INFECTION ASSAY - IC50
MEASUREMENT_LABEL: IC50 (nM)
Unit nM implied. Number only.

Recorded IC50 for `OCc1ccc(-c2cnc3ccc(NCc4ccc(F)cc4)nn23)cc1` with Plasmodium berghei, please? 1050

====

# System: Plasmodium berghei
# METHOD_DESCRIPTION: Luciferase/luciferin-expressing antifolate-resistant parasites were used to infect a culture of HepG2 cells that were pre-incubated with compounds. Infected hepatocytes emit light due to the luciferase reaction. Assay results are presented as the percent inhibition of light emission compared to control. […]
# Format: functional
# PROTOCOL_CONDITIONS: sporozoite, PBLUC_HILL_SLOPE 45.3, PBLUC_R_SQUARED 0.241, read-out: LUCIFERASE INFECTION ASSAY - IC50
MEASUREMENT_LABEL: IC50

GET /values?readout=IC50&item= `CCCNC(=O)c1c(NC(=O)c2ccc(OCC)cc2)nc2ccccn12` 8.55 µM

====

# System: Plasmodium berghei
# METHOD_DESCRIPTION: Luciferase/luciferin-expressing antifolate-resistant parasites were used to infect a culture of HepG2 cells that were pre-incubated with compounds. Infected hepatocytes emit light due to the luciferase reaction. Assay results are presented as the percent inhibition of light emission compared to control. […]
# Assay type: functional
# PROTOCOL_CONDITIONS: sporozoite, read-out: LUCIFERASE INFECTION ASSAY - IC90
MEASUREMENT_LABEL: IC90

// below: answered molecules
{"MOLECULE": "CC(C)C(NC(=O)c1ccc(C(C)(C)C)cc1)C(=O)Nc1ncc(Cc2ccc(Cl)cc2)s1 (stereo not given)", "IC90": "> 10 µM"}
{"MOLECULE": "O=C(NC1CC1)c1ccc(CN(C2CC2)S(=O)(=O)c2cccc3c2N=S=N3)cc1", "IC90": "> 10 µM"}

GET /values?readout=IC90&item= `Cc1ccc(C(C)C)cc1OCC(=O)N1CCC(C(=O)Nc2ccccc2O)CC1` 4.58 µM

GET /values?readout=IC90&item= `CC(C)(C)c1ccc(NC(=O)c2sc3nc4c(c(-c5cccnc5)c3c2N)CCC4)cc1` > 7.46 µM

GET /values?readout=IC90&item= `O=C(c1ccco1)N1CCC(Nc2nc(-c3cccs3)nc3sc4c(c23)CCCC4)CC1` > 10 µM
